- measurement_target: T1, CD27 expressed on the cell surface (HT1080_CD27 cells) (human, UniProt P26842 20-260); further: test concentration or dose not given here
- T1 sequence (looked up): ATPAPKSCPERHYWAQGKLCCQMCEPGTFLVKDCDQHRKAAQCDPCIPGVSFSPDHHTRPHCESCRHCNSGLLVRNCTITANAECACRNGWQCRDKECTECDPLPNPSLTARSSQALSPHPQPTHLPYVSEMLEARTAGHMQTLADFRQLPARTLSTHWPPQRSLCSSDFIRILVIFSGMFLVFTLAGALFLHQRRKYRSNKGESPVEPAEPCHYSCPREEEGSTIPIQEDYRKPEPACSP
- assay_details: cell-based or functional assay
readout_type: IL-8 [abs. corr.] (abs. corr.)
The answer is to be given in abs. corr.; state only the numeric part.

Consider the reported IL-8 [abs. corr.] for these binders:
P018.S.07.A.D03 (antibody, V domains shown, V regions on human Ig constant parts; also called AB27_122) VH: QEQLKESGGGLVTPGGTLTLTCTVSGFSLSGHDMGWVRQAPGKGLEWIGIIGSNSKTYYTNWAKGRFTISKTSTTVGLRITSPTTEDTATYFCTVVGPGVGGFYFDLWGQGTLVTVSS VL: DVVMTQTPASVSDPVGGTVTIRCQASQSIGSDLAWYQQKPGQPPKLLIYAASTLASGVPSRFSGSGSGTEYTLTISDLESADAATYYCQCTYVGSTYLGAFGGGTEVVVK : 0.569
P018.S.09.A.D04 (antibody, V domains shown, V regions on human Ig constant parts; also called AB27_151) VH: QSVEESGGRLVTPGTPLTLTCTVSGFSLSSNAISWVRQAPGKGLEWIAIITHSDNTFYASWAKGRFTISKASTTVDLKVTSPTTEDTATYFCARDGYVSSSGTYMGGYFDLWGQGTLVTVSS VL: DPVLTQTPSPVSAAVGGTVTINCQASQIIYNDKNLAWYQQKPGQPPKLLIYYASTLASGVSSRFKGSASGTQFTFTISGVQSDDAATYYCQGEFSCSSADCIAFGGGTEVVVK : 0.688
P018.S.01.A.C05 (antibody, V domains shown, V regions on human Ig constant parts; also called AB27_9) VH: QSLEESGGGLVQPEGSLTLTCTASGFSFSSRYYMCWVRQAPGKGLELIACIDTSSGSTWYASWAKGRFTVSKTSSTTVTLQMTSLTAADTATYFCARDLYHENSDGDWWGPGTLVTVSS VL: AFELTQTPSSVEAAVGGTVTIKCQASESINNYLAWYQQKPGQPPKLLIYKASTLASGVSSRFKGSGSGTDFTLTISGVQSDDAATYYCQSYYGASGSGSNVFGGGTEVVVK : 0.327
P018.S.09.A.C06 (antibody, V domains shown, V regions on human Ig constant parts; also called AB27_149) VH: QSVEESGGRLVTPGTPLTLTCTVSGFSLSTYAMGWVRQAPGKGLEWIGIIYTGGSTYYASWAEGRFTISKTSTTVDLKITSPTPEDTATYFCTRDLGATYDYFDLWGQGTLVTVSS VL: AYDMTQTPASVEVAVGGTVTIKCQASQSISTALAWYQQKPGQRPKLLIYDTSDLASGVPSRFSGSGSGTEFTLTISGVESADAATYYCQQGYRHTNVDNPFGGGTGVVVK : 1.94

We next turn to a different binder, shown below.
Given P018.S.03.A.B05 (antibody, V domains shown, V regions on human Ig constant parts; also called AB27_43) VH: QEQLEESGGDLVKPEGSLTLTCTASGFDLSSRYWICWVRQAPGKGLEWIGCIKTGFSNTWYASWATGRFTFSKASSTTVTLQMTSLTVADTATYFCARIAAAASASDDFRLWGPGTLVTVSS VL: AQVLTQTPSSVSAAVGGTVTISCQSSKSVYNKWLSWFQQKPGQPPKLLIYDASDLASGVPSRFKGSGSGTEFTLTISDVQSDDAATYFCLGHYDSSSDRFVFGGGTEVVVK , state its recorded IL-8 [abs. corr.].
0.325

Source of measurements: patent US20210253725A1
